assay: Effect of antioxidants on sincalide formulation stability (HPLC); conditions: antioxidant 10 μg/mL, Open, 1 h
PROPERTY: % Total Sincalide-Related Impurities (%)
Form entry: value (%) — number only.

Example entries and their recorded answers appear below.
O=S([O-])S(=O)(=O)[O-].[Na+].[Na+] [Sodium Metabisulfite] | 1.76
N[C@@H](CS)C(=O)O [Cysteine] | 2.20
O=C1O[C@H]([C@@H](O)CO)C(O)=C1O [Ascorbic Acid] | 2.00
CC(C)(C)CC(C)(C)c1ccc(OCCOCC[N+](C)(C)Cc2ccccc2)cc1 [Benzethonium Chloride] | 7.93
O=S(=O)([O-])[O-].[Na+].[Na+] [Sodium Sulfate] | 1.70

Would you kindly look at the next entry?
Query: Identify measured % Total Sincalide-Related Impurities corresponding to N[C@@H](CCC(=O)N[C@@H](CS)C(=O)NCC(=O)O)C(=O)O [Glutathione]
Result: 1.94

----------
assay: Effect of antioxidants on sincalide formulation stability (HPLC); details: antioxidant 10 μg/mL, Open, 15 h
PROPERTY: % Total Sincalide-Related Impurities (%)
Form entry: value (%) — number only.

Query: Identify measured % Total Sincalide-Related Impurities corresponding to N[C@@H](CCC(=O)N[C@@H](CS)C(=O)NCC(=O)O)C(=O)O [Glutathione]
Result: 2.13

Query: Identify measured % Total Sincalide-Related Impurities corresponding to CC(C)(C)CC(C)(C)c1ccc(OCCOCC[N+](C)(C)Cc2ccccc2)cc1 [Benzethonium Chloride]
Result: 7.36

Query: Identify measured % Total Sincalide-Related Impurities corresponding to O=C1O[C@H]([C@@H](O)CO)C(O)=C1O [Ascorbic Acid]
Result: 2.16

Query: Identify measured % Total Sincalide-Related Impurities corresponding to O=S([O-])S(=O)(=O)[O-].[Na+].[Na+] [Sodium Metabisulfite]
Result: 1.79

Query: Identify measured % Total Sincalide-Related Impurities corresponding to O=S(=O)([O-])[O-].[Na+].[Na+] [Sodium Sulfate]
Result: 1.92

Query: Identify measured % Total Sincalide-Related Impurities corresponding to N[C@@H](CS)C(=O)O [Cysteine]
Result: 2.05

----------
test: Effect of antioxidants on sincalide formulation stability (HPLC); conditions: antioxidant 10 μg/mL, Sealed, 7 h
Reported % Sincalide is given for each of the following compounds.
Form entry: value (%) — number only.

Example entries and their recorded answers appear below.
N[C@@H](CS)C(=O)O | 98.1
O=S(=O)([O-])[O-].[Na+].[Na+] [Sodium Sulfate] | 98.1

Query: Identify measured % Sincalide corresponding to N[C@@H](CCC(=O)N[C@@H](CS)C(=O)NCC(=O)O)C(=O)O
Result: 98.3

Query: Identify measured % Sincalide corresponding to O=C1O[C@H]([C@@H](O)CO)C(O)=C1O
Result: 98.0

Query: Identify measured % Sincalide corresponding to O=S([O-])S(=O)(=O)[O-].[Na+].[Na+] [Sodium Metabisulfite]
Result: 98.3

Query: Identify measured % Sincalide corresponding to CC(C)(C)CC(C)(C)c1ccc(OCCOCC[N+](C)(C)Cc2ccccc2)cc1 [Benzethonium Chloride]
Result: 98.0

----------
test: Effect of antioxidants on sincalide formulation stability (HPLC); details: antioxidant 10 μg/mL, Sealed, 0 h
Reported % Total Sincalide-Related Impurities is given for each of the following compounds.
Provide a numeric answer, followed by its unit.

O=S([O-])S(=O)(=O)[O-].[Na+].[Na+] [Sodium Metabisulfite] | 1.67%
O=S(=O)([O-])[O-].[Na+].[Na+] [Sodium Sulfate] | 1.76%
O=C1O[C@H]([C@@H](O)CO)C(O)=C1O [Ascorbic Acid] | 1.95%
CC(C)(C)CC(C)(C)c1ccc(OCCOCC[N+](C)(C)Cc2ccccc2)cc1 [Benzethonium Chloride] | 2.13%
N[C@@H](CCC(=O)N[C@@H](CS)C(=O)NCC(=O)O)C(=O)O [Glutathione] | 1.90%

Would you kindly look at the next entry?
Query: Identify measured % Total Sincalide-Related Impurities corresponding to N[C@@H](CS)C(=O)O [Cysteine]
Result: 1.85%

----------
test: Effect of antioxidants on sincalide formulation stability (HPLC); settings: antioxidant 10 μg/mL, Sealed, 0 h
PROPERTY: % Sincalide (%)
Form entry: value (%) — number only.

Example entries and their recorded answers appear below.
O=S([O-])S(=O)(=O)[O-].[Na+].[Na+] [Sodium Metabisulfite] | 98.3
O=S(=O)([O-])[O-].[Na+].[Na+] [Sodium Sulfate] | 98.2
O=C1O[C@H]([C@@H](O)CO)C(O)=C1O [Ascorbic Acid] | 98.1
N[C@@H](CS)C(=O)O [Cysteine] | 98.2
N[C@@H](CCC(=O)N[C@@H](CS)C(=O)NCC(=O)O)C(=O)O [Glutathione] | 98.1

Would you kindly look at the next entry?
Query: Identify measured % Sincalide corresponding to CC(C)(C)CC(C)(C)c1ccc(OCCOCC[N+](C)(C)Cc2ccccc2)cc1 [Benzethonium Chloride]
Result: 97.9

----------
Experiment: Effect of antioxidants on sincalide formulation stability (HPLC)
Conditions: antioxidant 10 μg/mL, Sealed, 14 h
Method: […] The effect of various antioxidants on the stabilization of sincalide was evaluated on open and sealed sincalide formulations over 15 hours. […] The sincalide and total sincalide-related impurities were monitored by reversed-phase HPLC with gradient elution and UV detection at 215 nm to compare the effectiveness of the antioxidants. […]
Label rule, in plain words: % Total Sincalide-Related Impurities of 2% and up is rule met, under 2% is rule not met.

Example entries and their recorded answers appear below.
N[C@@H](CS)C(=O)O | rule not met
O=S(=O)([O-])[O-].[Na+].[Na+] [Sodium Sulfate] | rule not met

Query: # check: % Total Sincalide-Related Impurities of N[C@@H](CCC(=O)N[C@@H](CS)C(=O)NCC(=O)O)C(=O)O is greater than or equal to 2%
Result: rule not met

Query: # check: % Total Sincalide-Related Impurities of O=C1O[C@H]([C@@H](O)CO)C(O)=C1O is greater than or equal to 2%
Result: rule met

Query: # check: % Total Sincalide-Related Impurities of O=S([O-])S(=O)(=O)[O-].[Na+].[Na+] [Sodium Metabisulfite] is greater than or equal to 2%
Result: rule not met

----------
assay: Effect of antioxidants on sincalide formulation stability (HPLC); conditions: antioxidant 10 μg/mL, Open, 1 h
Reported % Sincalide is given for each of the following compounds.
Form entry: value (%) — number only.

Example entries and their recorded answers appear below.
N[C@@H](CCC(=O)N[C@@H](CS)C(=O)NCC(=O)O)C(=O)O [Glutathione] | 98.1
O=S(=O)([O-])[O-].[Na+].[Na+] [Sodium Sulfate] | 98.3
CC(C)(C)CC(C)(C)c1ccc(OCCOCC[N+](C)(C)Cc2ccccc2)cc1 [Benzethonium Chloride] | 92.1
O=C1O[C@H]([C@@H](O)CO)C(O)=C1O [Ascorbic Acid] | 98.0
N[C@@H](CS)C(=O)O [Cysteine] | 97.8

Query: Identify measured % Sincalide corresponding to O=S([O-])S(=O)(=O)[O-].[Na+].[Na+] [Sodium Metabisulfite]
Result: 98.2

----------
assay: Effect of antioxidants on sincalide formulation stability (HPLC); details: antioxidant 10 μg/mL, Sealed, 14 h
Reported % Sincalide is given for each of the following compounds.
Form entry: value (%) — number only.

Example entries and their recorded answers appear below.
O=S(=O)([O-])[O-].[Na+].[Na+] [Sodium Sulfate] | 98.2
O=S([O-])S(=O)(=O)[O-].[Na+].[Na+] [Sodium Metabisulfite] | 98.3

Would you kindly look at the next entry?
Query: Identify measured % Sincalide corresponding to N[C@@H](CS)C(=O)O [Cysteine]
Result: 98.1
